ASSAY INFO: Toxicity in Artemia salina
Assay type: organism-based
CONDITION PARAMETERS: in vivo
MEASUREMENT KIND: LC50 (ng/mL)

[[record]]
chemical_string = "C=CC[C@@H](CC/C(C)=C/C=C/CC/C=C\\[C@@H]1CSC([C@@H]2C[C@@H]2C)=N1)OC"
measurement_kind = "LC50"
unit_text = "ng/mL"
quantitative_readout = 2.5


---

In this section, each of the molecules is paired with its reported LC50.
ASSAY INFO: Ichthyotoxicity in Carassius auratus
Assay type: organism-based
CONDITION PARAMETERS: in vivo
MEASUREMENT KIND: LC50

[[record]]
molecule = "C=C1CC(=O)N[C@@H](C)C(=O)N(C)[C@@H](C(C)C)C(=O)NCC(=O)O[C@@H](/C(C)=C/C(C)=C/C(C)(C)C)[C@@H]1C [ANTILLATOXIN]"
result = "0.05 µg/mL"

[[record]]
molecule = "C=C(CCNC(=O)CC/C=C/C[C@H](CCCCCCC)OC)[C@@]12O[C@@H]1CC=C(C)C2=O [MALYNGAMIDE H]"
result = "5 µg/mL"

